measured.on: human tissue factor (TF), membrane-bound on cells (human, UniProt P13726 33-295)
assay.info: cell-based or functional assay
parameter.measured: max inhibition of FVIIa induced IL-8 release (MDA-MB-231) (%)

[
  {
    "binder": "anti-TF HuMab 111 (antibody, V domains shown, Human monoclonal antibody from HuMab mice) VH: QVQLVESGGGVVQPGRSLRLSCAGSGFTFNRYAMYWVRQAPGKGLDWVAVISNDGINKYYADSVKGRFTISRDNSKNTLYLQMNSLRAEDTAVYYCARDHTMVRGAFDYWGQGTLVTVSS VL: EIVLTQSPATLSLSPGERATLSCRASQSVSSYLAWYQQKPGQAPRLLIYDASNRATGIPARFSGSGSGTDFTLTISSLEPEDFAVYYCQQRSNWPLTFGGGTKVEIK",
    "unit.of.measure": "%",
    "observed.measurement": 40.1
  },
  {
    "binder": "anti-TF HuMab 003 (antibody, V domains shown, Human monoclonal antibody from HuMab mice; also called HuMab-TF-003) VH: QVQLVQSGAEVKKPGSSVKVSCKAPRGTFSYYTISWVRQAPGQGLEWMGRIIPILGVANYAQKFQGRVTITADKSTSTAYMELSSLRSEDTAVYYCAREGDRRYFDYWGQGTLVTVSS VL: AIQLTQSPSSLSASVGDRVTITCRASQDISSALAWYQQKPGKAPKLLIYDASILESGVPSRFSGSGSGTDFTLTISSLQPEDFATYYCQQFNSYPLTFGGGTKVEIK",
    "unit.of.measure": "%",
    "observed.measurement": 76.2
  },
  {
    "binder": "anti-TF HuMab 013 (antibody, V domains shown, Human monoclonal antibody from HuMab mice; also called HuMab-TF-13) VH: EVQLVQSGAEVKKPGESLKISCKGSGYSFTSYWIGWVRQMPGKGLEWMGIIYPGDSDTRYSPSFQGQVTISADKSISTAYLQWSSLKASDTAMYYCARIHRGAGYSSSWPGAFDIWGQGTMVTVSS VL: DIQMTQSPSSLSASVGDRVTITCRASQGISRWLAWYQQKPEKAPKSLIYAASSLQSGVPSRFSGSGSGTDFTLTISSLQPEDFATYYCQQYDSDPITFGQGTRLEIK",
    "unit.of.measure": "%",
    "observed.measurement": -0.3
  }
]
